- assay_details: Pharmacokinetics of generated AZT in dog blood after oral administration
- Format: in vivo
- reported_conditions: in vivo, of azidothymidine, oral, amount equivalent to 250 mg of AZT, read-out: Cmax
assay_endpoint: Cmax

## Input Given Cc1cn([C@H]2C[C@H](N=[N+]=[N-])[C@@H](CO)O2)c(=O)[nH]c1=O , state its recorded Cmax.
## Output 9770 ng/mL

* * *

- assay_details: Pharmacokinetics of generated AZT in dog blood after oral administration
- Type: in vivo
- reported_conditions: in vivo, of azidothymidine, oral, amount equivalent to 250 mg of AZT, read-out: AUC
assay_endpoint: AUC (ng·h/mL)
Please state the figure in ng·h/mL; there is no need to write the unit.

## Input Given Cc1cn([C@H]2C[C@H](N=[N+]=[N-])[C@@H](CO)O2)c(=O)[nH]c1=O , state its recorded AUC.
## Output 58800
